# Test system: Escherichia coli IAI1
# run description: fold change of Cadaverine concentration vs plate DMSO controls (fold change (ratio)); higher = more amine produced, active = hit call of the paper (significant change in both replicates, either direction)
# experimental context: incubation time: 27 h, anaerobic, 37 °C
Where a name gives a salt, the structure may show the parent alone.
Quick rule: fold change of Cadaverine concentration of at least 1 means TRUE, below that means FALSE.

Consider the following illustrative entries.
COc1ccc(C(=O)NCc2cccnc2)cc1C(=O)NCc1cccnc1 [Picotamide monohydrate] (20 µM) = FALSE
CC[N+](CC)(CC(=O)Nc1c(C)cccc1C)Cc1ccccc1 [Denatonium benzoate] (20 µM) = FALSE
OC[C@H]1O[C@@H](O[C@@H]2[C@@H](CO)OC(O)(CO)[C@H]2O)[C@H](O)[C@@H](O)[C@H]1O (mixture of isomers) [Lactulose] (50 µM) = TRUE
CN[C@@H]1[C@H](O)[C@H](NC)[C@H]2O[C@@]3(O)C(=O)C[C@@H](C)O[C@H]3O[C@@H]2[C@H]1O [Spectinomycin dihydrochloride] (20 µM) = FALSE
CCOc1ccc(Cc2nccc3cc(OCC)c(OCC)cc23)cc1OCC [Ethaverine hydrochloride] (20 µM) = TRUE

I'd appreciate it if you could say whether COC1=CC(=O)C[C@@H](C)[C@]12Oc1c(Cl)c(OC)cc(OC)c1C2=O [Griseofulvin] (20 µM) has fold change of Cadaverine concentration at least equal to 1.
TRUE

I'd appreciate it if you could say whether Cc1ccc(-c2cc(C(F)(F)F)nn2-c2ccc(S(N)(=O)=O)cc2)cc1 [Celecoxib] (20 µM) has fold change of Cadaverine concentration at least equal to 1.
TRUE

I'd appreciate it if you could say whether Oc1ccc(C2CNCCc3c2cc(O)c(O)c3Cl)cc1 (centres undefined) [Fenoldopam] (20 µM) has fold change of Cadaverine concentration at least equal to 1.
TRUE

I'd appreciate it if you could say whether CC(=O)Oc1cc2c(s1)CCN(C(C(=O)C1CC1)c1ccccc1F)C2 (centres undefined) [Prasugrel] (20 µM) has fold change of Cadaverine concentration at least equal to 1.
TRUE

* * *

# Test system: Klebsiella aerogenes DSM 30053
# run description: growth (OD595) fold change vs plate DMSO controls (fold change (ratio)); higher = more growth
# experimental context: incubation time: 27 h, anaerobic, 37 °C
Structures can show the parent of a compound that is named as a salt.
metric: growth

Study these solved cases before continuing.
Cn1c(=O)c2[nH]cnc2n(C)c1=O [Aminophylline] (20 µM) = 0.955
CC(=O)Oc1ccc(C(=C2CCCCC2)c2ccc(OC(C)=O)cc2)cc1 [Cyclofenil] (20 µM) = 1.03
C=CCSCC1Nc2cc(Cl)c(S(N)(=O)=O)cc2S(=O)(=O)N1 (stereo not given) [Althiazide] (20 µM) = 1.01

Provide growth value for the following compound: Cn1nnc2c(C(N)=O)ncn2c1=O [Temozolomide] (20 µM)
0.992

Provide growth value for the following compound: c1ccc2c(c1)CCCC2C1=NCCN1 (stereo not given) [Tetrahydrozoline hydrochloride] (20 µM)
1.01

* * *

# Tested on: Klebsiella aerogenes DSM 30053
# run description: fold change of Cadaverine concentration vs plate DMSO controls (fold change (ratio)); higher = more amine produced, active = hit call of the paper (significant change in both replicates, either direction)
# experimental context: incubation time: 27 h, anaerobic, 37 °C
Where a name gives a salt, the structure may show the parent alone.
The molecules listed here are annotated with their fold change of Cadaverine concentration.
The response must contain the number and no unit.

Provide fold change of Cadaverine concentration value for the following molecule: CCC(NC(C)C)C(O)c1ccc(O)c2[nH]c(=O)ccc12 (stereo not drawn) [Procaterol hydrochloride] (20 µM)
1.06

Provide fold change of Cadaverine concentration value for the following molecule: CN1CCCCC1CCN1c2ccccc2Sc2ccc([S+](C)[O-])cc21 (stereo not drawn) [Mesoridazine besylate] (20 µM)
0.978

Provide fold change of Cadaverine concentration value for the following molecule: Cc1[nH]c(=O)c(C#N)cc1-c1ccncc1 [Milrinone] (20 µM)
1.03

Provide fold change of Cadaverine concentration value for the following molecule: CCN(CC)C(=O)C1(c2ccccc2)CC1CN (stereo not drawn) [Milnacipran hydrochloride] (20 µM)
1.04

Provide fold change of Cadaverine concentration value for the following molecule: NC(=O)OCC(COC(N)=O)c1ccccc1 [Felbamate] (20 µM)
0.985

* * *

# Test system: Escherichia coli IAI1
# run description: growth (OD595) fold change vs plate DMSO controls (fold change (ratio)); higher = more growth
# experimental context: incubation time: 27 h, anaerobic, 37 °C
metric: growth
The response must contain the number and no unit.

Study these solved cases before continuing.
CC(C)(c1ccc(O)cc1)c1ccc(O)cc1 [Bisphenol A] (20 µM) = 1.04
CC(C)(C#N)c1cc(Cn2cncn2)cc(C(C)(C)C#N)c1 [Anastrozole] (20 µM) = 1.16
NC(=O)c1cnccn1 [Pyrazinamide] (20 µM) = 1.04

Provide growth value for the following compound: CC(=O)Nc1ccc(C(=O)O)cc1 [Acedoben] (20 µM)
1

Provide growth value for the following compound: CC(C(=O)O)c1ccc(C(=O)c2ccccc2)s1 (centres undefined) [Tiaprofenic acid] (20 µM)
1.1

Provide growth value for the following compound: CC(C)/N=c1\cc2n(-c3ccc(Cl)cc3)c3ccccc3nc-2cc1Nc1ccc(Cl)cc1 [Clofazimine] (20 µM)
1.03

Provide growth value for the following compound: CC(=O)/N=c1/sc(S(N)(=O)=O)nn1C [Methazolamide] (20 µM)
1.07

Provide growth value for the following compound: Clc1ccc(C(Cn2ccnc2)OCc2c(Cl)cccc2Cl)c(Cl)c1 (centres undefined) [Isoconazole] (20 µM)
0.858

Provide growth value for the following compound: COc1cc(C)c(/C=C/C(C)=C/C=C/C(C)=C/C(=O)O)c(C)c1C [Acitretin] (20 µM)
1.1

* * *

# Tested on: Clostridium sporogenes DSM 1664
# run description: growth (OD595) fold change vs plate DMSO controls (fold change (ratio)); higher = more growth
# experimental context: incubation time: 27 h, anaerobic, 37 °C
The molecules listed here are annotated with their growth.
The response must contain the number and no unit.

Provide growth value for the following molecule: CSc1nc2cc(Cl)c(Oc3cccc(Cl)c3Cl)cc2[nH]1 [Triclabendazole] (20 µM)
0.189

Provide growth value for the following molecule: CCOC(=O)C1=C(C)NC(C)=C(C(=O)OC)C1c1cccc([N+](=O)[O-])c1 (centres undefined) [Nitrendipine] (20 µM)
1.04

Provide growth value for the following molecule: Cn1c(NCCN(CCO)CCCc2ccc([N+](=O)[O-])cc2)cc(=O)n(C)c1=O [Nifekalant] (20 µM)
1.11

Provide growth value for the following molecule: O=P(O)(O)C(O)(Cc1cccnc1)P(=O)(O)O [Risedronic acid monohydrate] (20 µM)
1.08

* * *

# Tested on: Klebsiella aerogenes DSM 30053
# run description: fold change of Putrescine concentration vs plate DMSO controls (fold change (ratio)); higher = more amine produced, active = hit call of the paper (significant change in both replicates, either direction);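 for the amine columns active = adjusted P below 0.05 in both replicates with a change the same way and a mean fold change under 0.8 or over 1.25; inactive = the rest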
# experimental context: incubation time: 27 h, anaerobic, 37 °C
Where a name gives a salt, the structure may show the parent alone.
Returns: one label drawn from yes (active), no (inactive)

Consider the following illustrative entries.
COc1ccc(OC)c(C(O)CNC(=O)CN)c1 (centres undefined) [Midodrine hydrochloride] (20 µM) = no
COC(=O)N/N=C/c1c[n+]([O-])c2ccccc2[n+]1[O-] [Carbadox] (20 µM) = yes
CN(C)CCOc1ccc(/C(=C(/CCCl)c2ccccc2)c2ccccc2)cc1 [Toremifene] (20 µM) = no

Returns: the outcome recorded for CCN(CC)Cc1cc(Nc2ccnc3cc(Cl)ccc23)ccc1O [Amodiaquine dihydrochloride dihydrate] (20 µM) in this assay.
no

Returns: the outcome recorded for C[C@H](CCC(=O)O)[C@H]1CC[C@H]2[C@@H]3C(=O)C[C@@H]4CC(=O)CC[C@]4(C)[C@H]3CC(=O)[C@]12C [Dehydrocholic acid] (20 µM) in this assay.
no

Returns: the outcome recorded for CC[C@H](C)[C@H](N)C1=N[C@H](C(=O)N[C@@H](CC(C)C)C(=O)N[C@H](CCC(=O)O)C(=O)N[C@H](C(=O)N[C@H]2CCCCNC(=O)[C@H](CC(N)=O)NC(=O)[C@@H](CC(=O)O)NC(=O)[C@H](Cc3cnc[nH]3)NC(=O)[C@@H](Cc3ccccc3)NC(=O)[C@H]([C@@H](C)CC)NC(=O)[C@@H](CCCN)NC2=O)[C@@H](C)CC)CS1 [Bacitracin] (20 µM) in this assay.
no

Returns: the outcome recorded for COc1cc(-c2ccc(=O)[nH]n2)ccc1OC(F)F [Zardaverine] (20 µM) in this assay.
no

Returns: the outcome recorded for CCN(CCCc1ccccc1)CCCc1ccccc1 [Alverine citrate salt] (20 µM) in this assay.
no

Returns: the outcome recorded for Clc1ccc(Nc2nnc(Cc3ccncc3)c3ccccc23)cc1 [Vatalanib] (20 µM) in this assay.
no

Returns: the outcome recorded for CC[C@H]1OC(=O)[C@H](C)[C@@H](O[C@H]2C[C@@](C)(OC)[C@@H](O)[C@H](C)O2)[C@H](C)[C@@H](O[C@@H]2O[C@H](C)C[C@H](N(C)C)[C@H]2O)[C@](C)(O)C[C@@H](C)CN(C)[C@H](C)[C@@H](O)[C@]1(C)O [Azithromycin] (20 µM) in this assay.
yes

Returns: the outcome recorded for C[n+]1ccccc1/C=N/O [Pralidoxime chloride] (20 µM) in this assay.
no

Returns: the outcome recorded for OC[C@H]1OC(O)[C@H](O)[C@@H](O)[C@@H]1O (some centres undefined) [Glucose/Dextrose] (50 µM) in this assay.
no

Returns: the outcome recorded for O=c1[nH]c(=O)n([C@H]2C[C@H](O)[C@@H](CO)O2)cc1F [Floxuridine] (20 µM) in this assay.
no

Returns: the outcome recorded for CCC(NC(C)C)C(O)c1ccc(O)c(O)c1 (centres undefined) [Isoetharine mesylate salt] (20 µM) in this assay.
no
